- test.target: HLA-B*08:01
- method: IEDB peptide-MHC binding, purified MHC/competitive/radioactivity; filed as Kd, often an IC50 or EC50 that approximates it; bounds were set here for any values at or beyond the usual limits of such assays
- assay.context: source organism: Dengue virus 2 16681-PDK53
experimental.readout: Kd (µM)
Supply the numeric figure in µM, leaving out any unit text.

Suppose we examine the sequence IDKKGKVVGL ; what Kd value has been reported?
13.7

----------
- test.target: HLA-A*68:02
- method: IEDB peptide-MHC binding, purified MHC/competitive/fluorescence; filed as Kd, often an IC50 or EC50 that approximates it; bounds were set here for any values at or beyond the usual limits of such assays
- assay.context: source organism: Bacillus anthracis str. A0488
experimental.readout: Kd

Return reported Kd; argument: KQGDVFYTA
≥ 20 µM

----------
- test.target: HLA-A*29:02
- method: IEDB peptide-MHC binding, purified MHC/direct/fluorescence; filed as Kd, often an IC50 or EC50 that approximates it; bounds were set here for any values at or beyond the usual limits of such assays
- assay.context: source organism: Choclo virus
experimental.readout: Kd

Notebook: pull reported Kd for HLA-A*29:02, entry PELGAFFAI
≥ 20 µM

----------
- test.target: HLA-B*15:01
- method: IEDB peptide-MHC binding, purified MHC/direct/fluorescence; filed as Kd, often an IC50 or EC50 that approximates it; bounds were set here for any values at or beyond the usual limits of such assays
- assay.context: source organism: Influenza A virus (A/South Carolina/1/1918(H1N1))
pKd: −log10 of the molar value.
experimental.readout: pKd

Consider the sequence RLFFKCIYR and give its measured pKd.
≤ 4.70

----------
- test.target: HLA-A*31:01
- method: IEDB peptide-MHC binding, purified MHC/direct/fluorescence; filed as Kd, often an IC50 or EC50 that approximates it; bounds were set here for any values at or beyond the usual limits of such assays
- assay.context: source organism: Mycobacterium tuberculosis
I'd appreciate it if you could supply pKd values for the items below.
# reply with the number alone; pKd is -log10 of concentration in mol/L

Reported pKd, sequence QINELHHSK : ____
6.47

Quick one: pKd for ALFDRPAFK ?
8.33

----------
- test.target: HLA-A*26:01
- method: IEDB peptide-MHC binding, purified MHC/direct/fluorescence; filed as Kd, often an IC50 or EC50 that approximates it; bounds were set here for any values at or beyond the usual limits of such assays
- assay.context: source organism: Mycobacterium tuberculosis variant bovis
experimental.readout: Kd (nM)
Enter your answer as a number in nM; do not include the unit.

// Kd lookup, key: VTNDGVIFF
1090

----------
- test.target: HLA-B*38:01
- method: IEDB peptide-MHC binding, purified MHC/direct/fluorescence; filed as Kd, often an IC50 or EC50 that approximates it; bounds were set here for any values at or beyond the usual limits of such assays
- assay.context: source organism: Variola virus
experimental.readout: Kd (nM)
The reply should contain only the number, in nM.

For YKEPNSIIL , what is its reported Kd?
617

----------
- test.target: HLA-A*31:01
- method: IEDB peptide-MHC binding, purified MHC/direct/fluorescence; filed as Kd, often an IC50 or EC50 that approximates it; bounds were set here for any values at or beyond the usual limits of such assays
- assay.context: source organism: Bacillus anthracis
Could you please report measured Kd for the items listed next?

Field request: Kd | item: WFREDRSPV
≥ 20 µM

What value of Kd has been reported for the following sequence? MSDIFASEV
≥ 20 µM

----------
- test.target: HLA-A*02:03
- method: IEDB peptide-MHC binding, purified MHC/competitive/radioactivity; filed as Kd, often an IC50 or EC50 that approximates it; bounds were set here for any values at or beyond the usual limits of such assays
- assay.context: source organism: Dengue virus 3 Martinique/1243/1999
experimental.readout: pKd
Please note pKd is a logarithmic value: minus log10 of concentration in mol/L. Answer with that number alone.

Please report the recorded pKd for GLAFSIMKSV .
7.94

----------
- test.target: HLA-B*39:01
- method: IEDB peptide-MHC binding, purified MHC/direct/fluorescence; filed as Kd, often an IC50 or EC50 that approximates it; bounds were set here for any values at or beyond the usual limits of such assays
- assay.context: source organism: Cryptosporidium parvum Iowa II
experimental.readout: Kd

What Kd value was documented for this sequence, ILTRLALFF ?
≥ 20 µM

----------
- test.target: HLA-A*02:01
- method: IEDB peptide-MHC binding, purified MHC/competitive/fluorescence; filed as Kd, often an IC50 or EC50 that approximates it; bounds were set here for any values at or beyond the usual limits of such assays
- assay.context: source organism: Entamoeba dispar SAW760
pKd: −log10 of the molar value.
experimental.readout: pKd

Form field: reported pKd of STYQFSLMQ
≤ 4.70

----------
- test.target: HLA-B*07:02
- method: IEDB peptide-MHC binding, purified MHC/competitive/radioactivity; filed as Kd, often an IC50 or EC50 that approximates it; bounds were set here for any values at or beyond the usual limits of such assays
- assay.context: source organism: Dengue virus 4 Dominica/814669/1981
experimental.readout: pKd
pKd is a log-scale quantity: -log10 of the concentration expressed in molar.

Can you share its pKd? I mean this sequence: SPGYVLGVFL
6.62

----------
- test.target: HLA-A*01:01
- method: IEDB peptide-MHC binding, purified MHC/competitive/radioactivity; filed as Kd, often an IC50 or EC50 that approximates it; bounds were set here for any values at or beyond the usual limits of such assays
- assay.context: source organism: Dengue virus 1 Brazil/97-11/1997
experimental.readout: pKd
Field pKd (float): negative decimal logarithm of the concentration in molar.

What value of pKd has been recorded for this entry: NSEQGGKAY
6.32

----------
- test.target: HLA-A*31:01
- method: IEDB peptide-MHC binding, purified MHC/direct/fluorescence; filed as Kd, often an IC50 or EC50 that approximates it; bounds were set here for any values at or beyond the usual limits of such assays
- assay.context: source organism: Vibrio vulnificus YJ016
experimental.readout: Kd

Quick check: Kd of LLRRRPYPL ?
≥ 20 µM

----------
- test.target: HLA-A*11:01
- method: IEDB peptide-MHC binding, purified MHC/direct/fluorescence; filed as Kd, often an IC50 or EC50 that approximates it; bounds were set here for any values at or beyond the usual limits of such assays
- assay.context: source organism: Entamoeba histolytica HM-1:IMSS
pKd: −log10 of the molar value.
experimental.readout: pKd

Short answer please: pKd, HLA-A*11:01, entry STYQFSLMQ
≤ 4.70

----------
For each entry below, report its IC50 value.
- test.target: HLA-B*15:01
- method: IEDB peptide-MHC binding, purified MHC/competitive/fluorescence; bounds were set here for any values at or beyond the usual limits of such assays
- assay.context: source organism: Vaccinia virus Copenhagen
Answers without a unit are incomplete; give the number and then its unit.

What IC50 value was documented for this sequence, VVANVIGLS ?
46.9 µM

What does the data say about its IC50? Entry: SQYANCSSI
7.41 µM

----------
For each of the sequences below, state its Kd.
- test.target: HLA-B*15:01
- method: IEDB peptide-MHC binding, purified MHC/direct/fluorescence; filed as Kd, often an IC50 or EC50 that approximates it; bounds were set here for any values at or beyond the usual limits of such assays
- assay.context: source organism: Camelpox virus M-96

Param item = NTDAFSREY ; retrieve measured Kd.
≥ 20 µM

// lookup Kd for SYVFNFHKY
≥ 20 µM

----------
- test.target: HLA-A*69:01
- method: IEDB peptide-MHC binding, purified MHC/direct/fluorescence; filed as Kd, often an IC50 or EC50 that approximates it; bounds were set here for any values at or beyond the usual limits of such assays
- assay.context: source organism: Coxiella burnetii Q321
experimental.readout: Kd

Which measured Kd value corresponds to YRATYSMAL ?
≥ 20 µM

----------
- test.target: HLA-A*24:03
- method: IEDB peptide-MHC binding, purified MHC/direct/fluorescence; filed as Kd, often an IC50 or EC50 that approximates it; bounds were set here for any values at or beyond the usual limits of such assays
- assay.context: source organism: Influenza A virus (A/Swine/Italy/25823/94(H3N2))
experimental.readout: Kd

Using the record for SFSFGGFTF , report its Kd.
≤ 1 nM

----------
- test.target: HLA-B*08:03
- method: IEDB peptide-MHC binding, purified MHC/direct/fluorescence; filed as Kd, often an IC50 or EC50 that approximates it; bounds were set here for any values at or beyond the usual limits of such assays
- assay.context: source organism: Variola virus
pKd: −log10 of the molar value.
experimental.readout: pKd

Which measured pKd value corresponds to RYPGVMYAF ?
≤ 4.70

----------
- test.target: HLA-A*02:03
- method: IEDB peptide-MHC binding, purified MHC/competitive/fluorescence; filed as Kd, often an IC50 or EC50 that approximates it; bounds were set here for any values at or beyond the usual limits of such assays
- assay.context: source organism: Entamoeba histolytica HM-1:IMSS
experimental.readout: Kd

What is its Kd for HLA-A*02:03? Entry: KTRMEDYYL
≥ 20 µM
